Values compiled from ChEMBL document CHEMBL5335808.

Assay: Lipophilicity, LogP of the compound
Format: physicochemical
Conditions: octanol/water
PROPERTY: logP

CCS(=O)(=O)N1CC[C@H](Nc2c(Br)cnc3[nH]c(-c4cc(C)n(-c5cc(NC(=O)CN6CCN(C)CC6)ccc5C)c4C)nc23)C1
5.89
CCS(=O)(=O)N1CC[C@H](Nc2c(Br)cnc3[nH]c(-c4cc(C)n(-c5ccc(C(=O)NCCN(C)C)cc5)c4C)nc23)C1
3.86
CCS(=O)(=O)N1CC[C@H](Nc2c(Br)cnc3nc(-c4cc(C)n(-c5cccc(NC(=O)CN6CCOCC6)c5C)c4C)[nH]c23)C1
4.28
CCS(=O)(=O)N1CC[C@H](Nc2c(Br)cnc3[nH]c(-c4cc(C)n(-c5ccc(C(=O)N6CCOCC6)cc5)c4C)nc23)C1
3.92
CCS(=O)(=O)N1CC[C@H](Nc2c(Br)cnc3nc(-c4cc(C)n(-c5cccc(NC(=O)CN(C)C)c5C)c4C)[nH]c23)C1
5.17
CCS(=O)(=O)N1CC[C@H](Nc2c(Br)cnc3[nH]c(-c4cc(C)n(-c5ccc(NC(=O)CN(C)C)cc5C)c4C)nc23)C1
4.53
CCS(=O)(=O)N1CC[C@H](Nc2c(Br)cnc3[nH]c(-c4cc(C)n(-c5ccc(C(=O)N6CCN(C)CC6)cc5C)c4C)nc23)C1
5.16

----------
Assay: Lipophilicity, LogP of the compound
Format: physicochemical
Conditions: octanol/water
PROPERTY: logP

CCS(=O)(=O)N1CC[C@H](Nc2c(Br)cnc3[nH]c(-c4cc(C)n(-c5cccc(C(=O)NCCN(C)C)c5)c4C)nc23)C1
4.81
CCS(=O)(=O)N1CC[C@H](Nc2c(Br)cnc3[nH]c(-c4cc(C)n(-c5cccc(C(=O)N6CCOCC6)c5)c4C)nc23)C1
3.69
CCS(=O)(=O)N1CC[C@H](Nc2c(Br)cnc3nc(-c4cc(C)n(-c5cccc(C(=O)NCCN(C)C)c5C)c4C)[nH]c23)C1
4.86

P = CCS(=O)(=O)N1CC[C@H](Nc2c(Br)cnc3[nH]c(-c4cc(C)n(-c5cc(C(=O)N6CCN(C)CC6)ccc5C)c4C)nc23)C1
Q = CCS(=O)(=O)N1CC[C@H](Nc2c(Br)cnc3[nH]c(-c4cc(C)n(-c5ccc(C(=O)N(C)CCN(C)C)cc5)c4C)nc23)C1
Input line: Compare the recorded logP of P and Q ; state which is larger. Select an item and report its label.
Output line: P

----------
Biological target: Mitogen-activated protein kinase kinase kinase 11 (Homo sapiens)
Sequence (Q16584 whole entry): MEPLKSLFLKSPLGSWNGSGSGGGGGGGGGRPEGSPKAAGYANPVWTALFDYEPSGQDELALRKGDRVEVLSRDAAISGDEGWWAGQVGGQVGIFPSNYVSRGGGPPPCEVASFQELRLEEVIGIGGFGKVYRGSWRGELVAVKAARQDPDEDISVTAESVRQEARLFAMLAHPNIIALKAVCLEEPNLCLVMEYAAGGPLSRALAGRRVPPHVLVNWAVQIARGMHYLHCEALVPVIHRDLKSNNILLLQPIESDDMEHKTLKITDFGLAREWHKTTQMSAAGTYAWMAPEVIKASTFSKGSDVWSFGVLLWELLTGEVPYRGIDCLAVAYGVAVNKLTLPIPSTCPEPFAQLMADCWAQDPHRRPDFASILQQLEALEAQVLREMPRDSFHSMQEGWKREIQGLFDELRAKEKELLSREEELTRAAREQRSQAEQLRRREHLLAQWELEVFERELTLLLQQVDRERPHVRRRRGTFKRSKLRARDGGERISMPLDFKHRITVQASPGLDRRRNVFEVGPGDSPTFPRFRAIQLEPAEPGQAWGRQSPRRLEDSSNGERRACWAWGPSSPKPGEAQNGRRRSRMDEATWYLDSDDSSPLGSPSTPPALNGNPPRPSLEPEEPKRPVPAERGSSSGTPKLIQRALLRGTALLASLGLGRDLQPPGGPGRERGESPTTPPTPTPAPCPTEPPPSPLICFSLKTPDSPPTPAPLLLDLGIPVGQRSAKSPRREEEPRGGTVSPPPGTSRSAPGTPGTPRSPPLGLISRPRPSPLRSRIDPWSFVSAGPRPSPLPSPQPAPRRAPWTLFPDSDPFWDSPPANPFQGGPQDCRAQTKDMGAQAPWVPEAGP
Assay: Inhibition of human MLK3 by ATP-competitive binding assay
PROPERTY: IC50 (nM)

CCS(=O)(=O)N1CC[C@H](Nc2c(Br)cnc3[nH]c(-c4cc(C)n(-c5ccc(C(=O)N6CCOCC6)cc5)c4C)nc23)C1
6
CCS(=O)(=O)N1CC[C@H](Nc2c(Br)cnc3[nH]c(-c4cc(C)n(-c5cccc(C(=O)NCCN(C)C)c5)c4C)nc23)C1
27
O=C1Nc2ccc3ncsc3c2/C1=C/c1c[nH]cn1
144

P = CCS(=O)(=O)N1CC[C@H](Nc2c(Br)cnc3[nH]c(-c4cc(C)n(-c5ccc(C(=O)N6CCN(C)CC6)cc5C)c4C)nc23)C1
Q = CCS(=O)(=O)N1CC[C@H](Nc2c(Br)cnc3[nH]c(-c4cc(C)n(-c5cccc(C(=O)N6CCOCC6)c5)c4C)nc23)C1
Input line: Lower value for measured IC50? Options: P , Q Select an item and report its label.
Output line: Q
(Q: 6 nM, P: 25 nM)
